B1: NET1 (parent)
chain: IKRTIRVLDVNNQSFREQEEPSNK

variants of: B1; assay: protein stability index of a GFP-peptide fusion (GPS, HEK-293T) (PSI 1-6); higher = more stable; conditions: c terminus: a fixed tail appended;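 note: lentivirally expressed fusions sorted by FACS into six bins by GFP to DsRed ratio, PSI derived from sequencing read proportions per bin multiplied by bin number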
reportedEndpoint: protein stability index
Returns: the value as a bare number; no unit string appended.

orderedresidues=IKRTIRVLDVNNQSFREQEEPSNA readoutnumber=3.46
orderedresidues=IKRTIRVLDKNNQSFREQEEPSNK readoutnumber=4.35
orderedresidues=IKRTIRVLDVNNQYFREQEEPSNK readoutnumber=2.6
orderedresidues=IKRTIRVNDVNNQSFREQEEPSNK readoutnumber=4.57
orderedresidues=IKRHIRVLDVNNQSFREQEEPSNK readoutnumber=3.89
orderedresidues=IKRTIRVLDVNNQSTREQEEPSNK readoutnumber=4.09
orderedresidues=IKRVIRVLDVNNQSFREQEEPSNK readoutnumber=2.51
orderedresidues=IKRTIRVLDVNNQSFRPQEEPSNK readoutnumber=2.92
orderedresidues=IKRTIRVLDVTNQSFREQEEPSNK readoutnumber=3.41
orderedresidues=IKRTIRVLDVNNYSFREQEEPSNK readoutnumber=2.04

Query protein stability index for IKRTIRVLDVNMQSFREQEEPSNK 3.29

Query protein stability index for IKRTIRVLDVNNQSFREQEEPSNG 3.83

Query protein stability index for IKRTIRVLDVNNQSFREGEEPSNK 3.59

Query protein stability index for YKRTIRVLDVNNQSFREQEEPSNK 4.1

Query protein stability index for IKRTIRVLDVNNQSFREVEEPSNK 3.43

Query protein stability index for IKRTIRVLDVNNQSFREQEEPCNK 3.59

Query protein stability index for IKRTIRVLDVNNQSFRWQEEPSNK 1.74

Query protein stability index for IKRTIRVLDVNNQSDREQEEPSNK 4.86

Query protein stability index for IKCTIRVLDVNNQSFREQEEPSNK 2.69

Query protein stability index for IKGTIRVLDVNNQSFREQEEPSNK 4.1

Query protein stability index for IKRTIRVLGVNNQSFREQEEPSNK 3.7

Query protein stability index for IKRTIRVLDVNNQSFRDQEEPSNK 3.25
